Data origin, for the record: patent US11207319B2

# Tested on: BXF 1352
# TEST PROTOCOL: In vitro 2D assay, CellTiter-Blue Cell Viability Assay
# Assay type: cell-based
# STATED CONDITIONS: Homo sapiens, BXF 1352, 96 h, read-out: Absolute IC50 values
READOUT TYPE: IC50 (µM)
Expressed in µM, but write only the number.

Query string: Respond only with IC50 recorded for CC(C)N1CCN(c2ccc(OC[C@@H]3CO[C@@](Cn4cncn4)(c4ccc(Cl)cc4Cl)O3)cc2)CC1 (racemic)
Result string: 45.9

----------
# Tested on: BXF T24
# TEST PROTOCOL: In vitro 2D assay, CellTiter-Blue Cell Viability Assay
# Format: cell-based
# STATED CONDITIONS: Homo sapiens, BXF T24, 96 h, read-out: Absolute IC50 values
READOUT TYPE: pIC50
Quick note: pIC50 means taking -log10 of the concentration in moles per liter.

Query string: Respond only with pIC50 recorded for CC(C)N1CCN(c2ccc(OC[C@@H]3CO[C@@](Cn4cncn4)(c4ccc(Cl)cc4Cl)O3)cc2)CC1 (racemic)
Result string: 4.38

----------
# Tested on: 5 human tumor cell lines of bladder cancer
# TEST PROTOCOL: In vitro 3D clonogenic assay, panel summary
# Format: cell-based
# STATED CONDITIONS: Homo sapiens; 3D clonogenic assay, five cell lines; read-out: Geometric Mean Absolute IC50 values
READOUT TYPE: pIC50
Quick note: pIC50 means taking -log10 of the concentration in moles per liter.

Query string: Respond only with pIC50 recorded for CC(C)N1CCN(c2ccc(OC[C@@H]3CO[C@@](Cn4cncn4)(c4ccc(Cl)cc4Cl)O3)cc2)CC1 (racemic)
Result string: 4.47

----------
# System: BXF 1036
# TEST PROTOCOL: In vitro 2D assay, CellTiter-Blue Cell Viability Assay
# Type: cell-based
# STATED CONDITIONS: Homo sapiens, BXF 1036, 96 h, read-out: Absolute IC50 values
READOUT TYPE: IC50 (µM)
Expressed in µM, but write only the number.

Query string: Respond only with IC50 recorded for CC(C)N1CCN(c2ccc(OC[C@@H]3CO[C@@](Cn4cncn4)(c4ccc(Cl)cc4Cl)O3)cc2)CC1 (racemic)
Result string: 29.4

----------
# System: BXF 1036L
# TEST PROTOCOL: In vitro combination study, 3D clonogenic assay, 5x5 matrix
# Format: cell-based
# STATED CONDITIONS: Homo sapiens, monotherapy controls of 5x5 matrix, soft agar, read-out: IC50, colony formation, single agent
READOUT TYPE: pIC50
Quick note: pIC50 means taking -log10 of the concentration in moles per liter.

Query string: Respond only with pIC50 recorded for CC(C)N1CCN(c2ccc(OC[C@@H]3CO[C@@](Cn4cncn4)(c4ccc(Cl)cc4Cl)O3)cc2)CC1 (racemic)
Result string: 4.57

----------
# Test system: BXF 5637
# TEST PROTOCOL: In vitro 2D assay, CellTiter-Blue Cell Viability Assay
# Type: cell-based
# STATED CONDITIONS: Homo sapiens, BXF 5637, 96 h, read-out: Absolute IC50 values
# Protocol: The in-vitro anti-tumor activity of terconazole was assessed in five selected human bladder cancer cell lines. The test compounds were applied at 9 concentrations in half-log increments. As a reference compound cisplatin was tested in parallel. Cells were treated for 96 h with the test compounds. Anti-tumor activity was assessed by using the CellTiter-Blue® Cell Viability Assay. Potency is expressed as absolute IC50 and relative IC50 values, calculated by non-linear regression analysis. […]
READOUT TYPE: IC50 (µM)
Expressed in µM, but write only the number.

Query string: Print BXF 5637 IC50 for CC(C)N1CCN(c2ccc(OC[C@@H]3CO[C@@](Cn4cncn4)(c4ccc(Cl)cc4Cl)O3)cc2)CC1 (racemic) [Terconazole] .
Result string: 38.4
